# experiment: Locust hemolymph kinetics after injection into the hemolymph (LCMS)
# measurement-context: Locusta migratoria, in vivo, 0.2 mg per locust (approximately)
observed-property: concentration at 360 min (ng/mL)
Form entry: value (ng/mL) — number only.

Entry under test: Cn1c(=O)c2c(ncn2C)n(C)c1=O . Its concentration at 360 min was 5500

###

# experiment: Locust hemolymph kinetics after injection into the hemolymph (LCMS)
# measurement-context: Locusta migratoria, in vivo, 0.2 mg per locust (approximately)
observed-property: concentration at 120 min (ng/mL)
The response must be a number in ng/mL with no trailing unit.

The reported value for Cn1c(=O)c2c(ncn2C)n(C)c1=O [caffeine] in terms of concentration at 120 min is 6820
